tested on: inflammatory cytokine IL-6; assay: Inhibition of cytokine IL-6 in PMA-differentiated, LPS-treated THP-1 cells (Cytometric Bead Array, flow cytometry); type: cell-based, human; conditions: Homo sapiens, PMA 160 nM 36 h, compound 2 h then LPS 24 h, IL-6 in culture solution by CBA, read-out: Half maximal inhibitory concentration (IC50) value on inflammatory cytokine IL-6
// reported IC50 per item
Quick note: give the figure in µM, leave out the unit.

Please review the entries below; each comes with its answer.
COMPOUND: CC[C@H](C)C[C@]1(O)C(=O)C[C@@H](O)[C@@]2(C)C=C(C)[C@H](O2)/C(C)=C/C(C)=C/C[C@@H](CO)OC(=O)[C@H](OC)[C@@H](O)CNC1=O [Compound 1, Somalactam A]
EXPERIMENTAL SYSTEM: inflammatory cytokine IL-6
OBSERVATION TYPE: IC50
READING: 10.5

COMPOUND: CC[C@H](C)C[C@@]1(O)C(=O)NC[C@H](O)[C@@H](OC)C(=O)O[C@@H]2CO[C@]3(C)C=C(C)[C@@H](/C(C)=C/[C@@]4(C)O[C@]1(O)C[C@H]4O)[C@@H]3C2 [Compound 4, Somalactam D]
EXPERIMENTAL SYSTEM: inflammatory cytokine IL-6
OBSERVATION TYPE: IC50
READING: 9.12

COMPOUND: CC[C@H](C)C[C@@]1(O)C(=O)NC[C@H](O)[C@@H](OC)C(=O)O[C@H](CO)C/C=C(\C)[C@@H]2C(C)=C[C@@]3(C)O[C@@H]4C[C@@]1(O)O[C@]4(C)[C@@H]23 [Compound 3, Somalactam C]
EXPERIMENTAL SYSTEM: inflammatory cytokine IL-6
OBSERVATION TYPE: IC50
READING: 5.76

Let us move to another entry and its IC50.
Incoming: What IC50 value was documented for this compound, CC[C@H](C)C[C@@]1(O)C(=O)NC[C@H](O)[C@@H](OC)C(=O)OC[C@@H](O)C/C=C(\C)[C@H]2C(C)=C[C@]3(C)O[C@@H]4C[C@@]1(O)O[C@]4(C)[C@H]23 [Compound 2, Somalactam B] ?
Outgoing: 11.1
